# experimental system: Human OX1 receptor (Homo sapiens, UniProt O43613)
# Sequence (O43613 whole entry): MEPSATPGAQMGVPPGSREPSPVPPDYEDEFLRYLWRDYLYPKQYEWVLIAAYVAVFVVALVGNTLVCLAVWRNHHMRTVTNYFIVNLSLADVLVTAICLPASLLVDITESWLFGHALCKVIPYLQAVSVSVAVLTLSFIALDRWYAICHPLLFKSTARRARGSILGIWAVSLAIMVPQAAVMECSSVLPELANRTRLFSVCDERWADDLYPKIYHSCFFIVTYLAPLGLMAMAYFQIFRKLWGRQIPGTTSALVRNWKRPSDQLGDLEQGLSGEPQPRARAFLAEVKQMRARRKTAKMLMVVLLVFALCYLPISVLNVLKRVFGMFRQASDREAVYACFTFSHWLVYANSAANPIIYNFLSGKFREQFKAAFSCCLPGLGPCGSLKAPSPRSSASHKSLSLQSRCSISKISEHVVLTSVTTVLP
# assay summary: IPone accumulation assay, CHO cells expressing human OX1 receptor
# Type: cell-based
# condition description: antagonism of orexin A (EC80) induced inositol phosphate turnover, read-out: fpKb average OX1 (converted)
experimental readout: Kb (µM)

> print(dat)
                        structure.as.smiles  experimental.readout  obs.value
1  COc1cccc(-c2ncc(F)cn2)c1C(=O)N[C@H]1CCC[C@@H]1COc1ccc(F)cc1                    Kb     0.0316
2  O=C(N[C@H]1CCC[C@@H]1COc1ccc(F)cc1)c1ncccc1-c1ncccn1                    Kb     0.0794
3  COCc1ccc(-n2nccn2)c(C(=O)N[C@H]2CCC[C@@H]2COc2ccc(F)cc2)n1                    Kb     0.0631
4  COCc1cccc(-n2nccn2)c1C(=O)N[C@H]1CCC[C@@H]1COc1ccc(F)cc1                    Kb      0.251
5  COc1ccc(-n2nccn2)c(C(=O)N[C@H]2CCC[C@@H]2COc2ccc(Cl)cc2)n1                    Kb      0.794
6  COc1cccc(-c2cnccn2)c1C(=O)N[C@H]1CCC[C@@H]1COc1ccc(F)cc1                    Kb       0.02
7  [2H]C([2H])([2H])Oc1cccc(-n2nccn2)c1C(=O)N[C@H]1CCC[C@@H]1COc1ccc(F)cc1                    Kb      0.001
8  [2H]C([2H])(Oc1ccc(F)cc1)[C@H]1CCC[C@@H]1NC(=O)c1c(OC)cccc1-n1nccn1                    Kb   0.000794

* * *

# experimental system: Human OX2 receptor (Homo sapiens, UniProt O43614)
# Sequence (O43614 whole entry): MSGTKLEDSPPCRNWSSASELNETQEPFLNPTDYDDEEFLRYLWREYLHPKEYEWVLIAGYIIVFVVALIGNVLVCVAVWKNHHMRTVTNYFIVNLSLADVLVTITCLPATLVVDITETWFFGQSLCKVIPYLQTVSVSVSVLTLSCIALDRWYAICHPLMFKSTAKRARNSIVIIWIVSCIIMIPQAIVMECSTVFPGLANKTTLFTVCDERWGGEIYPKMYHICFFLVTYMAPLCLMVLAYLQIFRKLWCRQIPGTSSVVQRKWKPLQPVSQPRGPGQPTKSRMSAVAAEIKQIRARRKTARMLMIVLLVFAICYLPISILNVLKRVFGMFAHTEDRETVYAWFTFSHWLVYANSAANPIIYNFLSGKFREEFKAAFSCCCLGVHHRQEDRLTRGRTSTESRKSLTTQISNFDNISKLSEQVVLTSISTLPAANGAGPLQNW
# assay summary: IPone accumulation assay, CHO cells expressing human OX2 receptor
# Type: cell-based
# condition description: antagonism of orexin A (EC80) induced inositol phosphate turnover, read-out: fpKb average OX2
experimental readout: Kb

> print(dat)
                                   compound   obs.value
1  COCc1cccc(-n2nccn2)c1C(=O)N[C@H]1CCC[C@@H]1COc1ccc(F)cc1 [Example 17]  > 0.631 µM
2  O=C(N[C@H]1CCC[C@@H]1COc1ccc(F)cc1)c1ncccc1-c1ncccn1 [Example 25]  > 0.631 µM
3  COc1cccc(-c2ccncn2)c1C(=O)N[C@H]1CCC[C@@H]1COc1ccc(F)cc1 [Example 12]  > 0.631 µM
4  O=C(N[C@H]1CCC[C@@H]1COc1ccc(F)cc1)c1c(OC(F)F)cccc1-c1ncccn1 [Example 15]   > 2.51 µM
5  COc1ccc(-n2nccn2)c(C(=O)N[C@H]2CCC[C@@H]2COc2ccc(F)cc2)n1 [Example 20]   > 1.26 µM
6  COc1cccc(-c2ncc(F)cn2)c1C(=O)N[C@H]1CCC[C@@H]1COc1ccc(F)cc1 [Example 13]  > 0.631 µM
7  COc1cccc(-c2ncccn2)c1C(=O)N[C@H]1CCC[C@@H]1COc1ccc(F)cn1 [Example 32]   > 2.51 µM
8  Cc1ccc(-c2ncccn2)c(C(=O)N[C@H]2CCC[C@@H]2COc2ccc(F)cc2)n1 [Example 24]  > 0.631 µM

Ref: patent US12331029B2
